# koff per record follows
- TGT: T1, YU-2 gp120 (HIV-1 (strain YU-2), UniProt P35961 32-498)
- T1 construct: domain: gp120; also called gp120WT; intact YU-2 gp120
- METHOD_DESCRIPTION: SPR, IgG over immobilised YU-2 gp120, 1:1 fit, apparent constant
Quick reminder: number only, in s⁻¹, skip the unit.

Here is how some binders turned out for koff.
10-410 (antibody, V domains shown) VH: QVQLQESGPGLVKPPETLSLTCSVSGASVNDAYWSWIRQSPGKRPEWVGYVHHSGDTNYNPSLKRRVTFSLDTAKNEVSLKLVALTAADSAVYFCARALHGKRIYGIVALGELFTYFYMDVWGKGTTVTVSS VL: SFVSVAPGQTARITCGEESLGSRSVIWYQQRPGQAPSLIIYNNNDRPSGIPERFSGSPGSTFGTTATLTITSVEAGDEADYYCHIWDSRRPTNWVFGEGTTLTVL ... 0.0017
10-847 (antibody, V domains shown) VH: QVQLQESGPGLVKPSETLSVTCSVSGDSMNNYYWTWIRQSPGKGLEWIGYISDRASATYNPSLNSRVVISRDTSKNQLSLKLNSVTPADTAVYYCATARRGQRIYGVVSFGEFFYYYSMDVWGKGTTVTVSS VL: SYVRPLSVALGETASISCGRQALGSRAVQWYQHRPGQAPILLIYNNQDRPSGIPERFSGTPDINFGTRATLTISGVEAGDEADYYCHMWDSRSGFSWSFGGATRLTVL ... 0.00018
10-1074 (antibody, V domains shown) VH: QVQLQESGPGLVKPSETLSVTCSVSGDSMNNYYWTWIRQSPGKGLEWIGYISDRESATYNPSLNSRVVISRDTSKNQLSLKLNSVTPADTAVYYCATARRGQRIYGVVSFGEFFYYYSMDVWGKGTTVTVSS VL: SYVRPLSVALGETARISCGRQALGSRAVQWYQHRPGQAPILLIYNNQDRPSGIPERFSGTPDINFGTRATLTISGVEAGDEADYYCHMWDSRSGFSWSFGGATRLTVL ... 0.00019

Let's switch to this binder now.
Look up koff: 10-1341 (antibody, V domains shown) VH: QVQLQESGPGLVKPSETLSVTCSVSGDSMNNYYWTWIRQSPGKGLEWIGYISDRESATYNPSLNSRVVISRDTSTNQLSLKLNSVTPADTAVYYCATARRGQRIYGVVSFGEFFYYYSMDVWGRGTTVTVSS VL: SYVRPLSVALGETARISCGRQALGSRAVQWYQHRPGQAPILLIYNNQDRPSGIPERFSGTPDINFGTRATLTISGVEAGDEADYYCHMWDSRSGFSWSFGGATRLTVL
0.00016
